Data provenance: patent US9469650B2

- Test system: NCI-H522
- METHOD: panel of 60 human tumor cell lines, growth inhibition (Non-Small Cell Lung Cancer)
- CONDITION_NOTES: Homo sapiens, NCI-H522, read-out: TGI
# IC (TGI) values compiled below
Respond with the bare value in µM.

Send back NCI-H522 IC (TGI) of C=C1C(=O)O[C@H]2[C@H]1CC/C(COC(=O)Nc1n[nH]c(SC)n1)=C\CC[C@@]1(C)O[C@@H]21 [JVM 64] only. 3.17

Send back NCI-H522 IC (TGI) of C=C1C(=O)O[C@H]2[C@H]1CC/C(COC(=O)OCCCN1CCCCC1)=C\CC[C@@]1(C)O[C@@H]21 [JVM 2-26] only. 3.2

Send back NCI-H522 IC (TGI) of C=C1C(=O)O[C@H]2[C@H]1CC/C(COC(=O)NCCN1CCOCC1)=C\CC[C@@]1(C)O[C@@H]21 [JVM 57] only. 5.88

Send back NCI-H522 IC (TGI) of C=C1C(=O)O[C@H]2[C@H]1CC/C(COC(=O)OC)=C\CC[C@@]1(C)O[C@@H]21 [JVM 2-40] only. 2.5

Send back NCI-H522 IC (TGI) of C=C1C(=O)O[C@H]2[C@H]1CC/C(COC(=O)CCC(=O)NCc1ccc(Cl)nc1)=C\CC[C@@]1(C)O[C@@H]21 [JVM 96] only. 3.54

###

CC50, HCC-2998, per-entry values.
Respond with the bare value in µM.

In the examples that follow, each entry is paired with its recorded CC50.
{"SMILES_REPRESENTATION": "C=C1C(=O)O[C@H]2[C@H]1CC/C(COC(=O)NCCN1CCCCC1)=C\\CC[C@@]1(C)O[C@@H]21", "CC50 / µM": 70.1}
{"SMILES_REPRESENTATION": "C=C1C(=O)O[C@H]2[C@H]1CC/C(COC(=O)CCC(=O)N1CCC(C)CC1)=C\\CC[C@@]1(C)O[C@@H]21", "CC50 / µM": 61}

Send back HCC-2998 CC50 of C=C1C(=O)O[C@H]2[C@H]1CC/C(COC(=O)N1CCN(C)CC1)=C\CC[C@@]1(C)O[C@@H]21 only. 71.9

Send back HCC-2998 CC50 of C=C1C(=O)O[C@H]2[C@H]1CC/C(COC(=O)N1CCC(F)(F)CC1)=C\CC[C@@]1(C)O[C@@H]21 only. 57.9

Send back HCC-2998 CC50 of C=C1C(=O)O[C@H]2[C@H]1CC/C(COC(=O)NCCO)=C\CC[C@@]1(C)O[C@@H]21 only. 77.2

Send back HCC-2998 CC50 of C=C1C(=O)O[C@H]2[C@H]1CC/C(COC(=O)NC)=C\CC[C@@]1(C)O[C@@H]21 only. 61.6

###

- Tested on: RXF 393
- METHOD: panel of 60 human tumor cell lines, growth inhibition (Renal Cancer)
- CONDITION_NOTES: RXF 393; Log10 Concentration −8.0
READOUT_TYPE: Percent Growth (%)
Respond with the bare value in %.

Supply Percent Growth value. Item: C=C1C(=O)O[C@H]2[C@H]1CC/C(COC(=O)CCC(=O)N1CCC(C)CC1)=C\CC[C@@]1(C)O[C@@H]21 [JVM 2-70] 105

Supply Percent Growth value. Item: C=C1C(=O)O[C@H]2[C@H]1CC/C(COC(=O)NCCN1CCCCC1)=C\CC[C@@]1(C)O[C@@H]21 [JVM 2-13] 98

Supply Percent Growth value. Item: C=C1C(=O)O[C@H]2[C@H]1CC/C(COC(=O)NCCc1ccccn1)=C\CC[C@@]1(C)O[C@@H]21 [JVM 61] 101

Supply Percent Growth value. Item: C=C1C(=O)O[C@H]2[C@H]1CC/C(COC(=O)N1CCN(C)CC1)=C\CC[C@@]1(C)O[C@@H]21 [JVM 2-44] 88
